# System: Ba/F3-KIF5B-RET-G810S
# ASSAY_DETAILS: Cell proliferation (Celltiter-Glo), Ba/F3-KIF5B-RET-G810S
# Format: cell-based
# STUDY_CONDITIONS: anti-proliferative, read-out: IC50 (nM, mean ± SD)
# Procedure: Ba/F3-KIF5B-RET, Ba/F3-CCDC6-RET, Ba/F3-KIF5B-RET-V804L, Ba/F3-KIF5B-RET-V804M, Ba/F3-KIF5B-RET-G810R, and Ba/F3-KIF5B-RET-G810S cells were provided by Kyinno Biotechnology Co., Ltd. The cells were cultured in RPMI 1640 (Biological Industries, Israel) supplemented with 10% fetal bovine serum (Biological Industries, Israel) and 1% Penicillin/Streptomycin solution (Corning, United States). […]
REPORTED_PROPERTY: IC50 (nM)
Reply with just the number (in nM).

Input line: Recorded IC50 for COc1ccc(CN2C3CC2CN(c2ccc(-c4cc(OCC(C)(C)O)cn5ncc(C#N)c45)cn2)C3)cn1 [Selpercatinib] , please?
Output line: 125
